Below, each entry is listed with its recorded IC50.
# Test system: HT-29 (human colonic adenocarcinoma) cells
# Assay text: Sulforhodamine B Assay, tumor cell growth inhibition, HT-29
# Format: cell-based
# Run conditions: Homo sapiens; Table II; HT-29 p 135; read-out: IC50, HT-29

>  <Molecule>
C[C@]12OC(=O)C[C@@]1(O)c1cc(F)ccc1/C2=C\c1ccc(S(C)(=O)=O)cc1 (relative stereo) [Example 11]

>  <Unit of measurement>
µM

>  <IC50>
100

$$$$
>  <Molecule>
C[S+]([O-])c1ccc(/C=C2\c3ccc(F)cc3C3=CC(=O)OC32C)cc1 (racemic) [Example 4]

>  <Unit of measurement>
µM

>  <IC50>
0.11

$$$$
>  <Molecule>
C[S+]([O-])c1ccc(/C=C2\c3ccc(F)cc3[C@]3(Br)CC(=O)O[C@]23C)cc1 (relative stereo) [Example 2]

>  <Unit of measurement>
µM

>  <IC50>
0.081

$$$$
>  <Molecule>
CC12OC(=O)CC1c1cc(F)ccc1/C2=C\c1ccc(S(C)(=O)=O)cc1 (racemic) [Example 9]

>  <Unit of measurement>
µM

>  <IC50>
110

$$$$

====

# System: MCF7/S (human breast adenocarcinoma) cells
# Assay text: Sulforhodamine B Assay, tumor cell growth inhibition, MCF7/S
# Assay type: cell-based
# Run conditions: MCF7S, 168 h, Table I, seven days continuous exposure, read-out: I.C.50 Values, MCF7/S
pIC50: −log10 of the molar value.
Value kind: pIC50

>  <Compound>
CC12OC(=O)C=C1c1cc(F)ccc1/C2=C\c1ccc(S(C)(=O)=O)cc1 (racemic) [Example 3]

>  <Experimental value>
6.70

$$$$

====

# System: PGE2 production by human granulocytes (differentiated HL-60 cells)
# Assay text: inhibition of A23187-stimulated PGE2 production in DMSO-differentiated HL-60 cells (EIA)
# Assay type: cell-based
# Run conditions: Homo sapiens, HL-60, read-out: inhibition of PGE2 production, IC50
pIC50: −log10 of the molar value.
Value kind: pIC50

>  <Compound>
COc1ccc2c(c1)c(CC(=O)O)c(C)n2C(=O)c1ccc(Cl)cc1 [Indomethacin]

>  <Study target>
PGE2 production by human granulocytes (differentiated HL-60 cells)

>  <Experimental value>
8.70

$$$$
